B1: Pistol ribozyme (parent)
chain: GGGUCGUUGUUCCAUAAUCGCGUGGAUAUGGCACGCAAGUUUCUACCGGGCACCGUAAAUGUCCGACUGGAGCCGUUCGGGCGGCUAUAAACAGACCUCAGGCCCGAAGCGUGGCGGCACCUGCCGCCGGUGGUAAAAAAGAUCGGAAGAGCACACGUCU

# Variants of: B1
# testProtocol: aptazyme ON/OFF ratio, guanine; higher = stronger switching; co-transcriptional cleavage with and without guanine
outcomeMeasure: aptazyme ON/OFF ratio

Query: For the variant U7G G9A U10G U11A C12A C13G , report aptazyme ON/OFF ratio.
Reply: 1.05

Query: For the variant U7G U8A G9C U11C C12G , report aptazyme ON/OFF ratio.
Reply: 1.05

Query: For the variant U7A U8A U10G U11C C13U , report aptazyme ON/OFF ratio.
Reply: 1.04

Continuing:
Query: For the variant U8A G9C U11G C13G , report aptazyme ON/OFF ratio.
Reply: 1.04

Query: For the variant U7C U8A G9A C12U C13U , report aptazyme ON/OFF ratio.
Reply: 1.18

Query: For the variant U7G U8C G9U U10C U11C C12A C13U , report aptazyme ON/OFF ratio.
Reply: 1.54

Query: For the variant U7G U8A G9U U10C C12U C13U , report aptazyme ON/OFF ratio.
Reply: 1.03

Query: For the variant U7A G9C U10C C12G C13U , report aptazyme ON/OFF ratio.
Reply: 1.05

Query: For the variant U8A U10G U11A C12U C13G , report aptazyme ON/OFF ratio.
Reply: 1.35

Query: For the variant U7G U8A G9U U10C C13U , report aptazyme ON/OFF ratio.
Reply: 1.38

Query: For the variant U7G U8G G9A U10C C12U C13A , report aptazyme ON/OFF ratio.
Reply: 1.11

Query: For the variant U8C G9C U10A U11A , report aptazyme ON/OFF ratio.
Reply: 1.24
